Assay: Metabolic stability of the compound in human liver microsomes assessed as parent compound remaining measured after 30 mins
Format: ADME, Microsome
Details: read-out: Stability
Readout Type: remaining at 0.5 h (%)

INSERT INTO assay_data (compound, readout_type, units_symbol, value_measured) VALUES
  ('COc1ccnc(S(=O)(=O)/C=C/c2cccnc2Cl)c1', 'remaining at 0.5 h', '%', 76.6),
  ('COc1ccnc([S+]([O-])/C=C/c2ccccc2C(F)(F)F)c1 (configuration not stated)', 'remaining at 0.5 h', '%', 40.6),
  ('COc1ccc(S(=O)(=O)/C=C/c2ccccc2Cl)nc1', 'remaining at 0.5 h', '%', 9.5);

(I) COc1cccc(S(=O)(=O)/C=C/c2ncccc2Cl)n1
(II) COc1ccncc1S(=O)(=O)/C=C/c1ccccc1C(F)(F)F
input: Could you tell me which of these two has the smaller remaining at 0.5 h figure? First: I Second: II Write down the label of the entry you select.
output: I

(P) COc1ccnc(S(=O)(=O)/C=C/c2cccc(Cl)c2)c1
(Q) COc1ccnc(S(=O)(=O)/C=C/c2ccccc2Cl)c1
input: Please tell me which of the two, P or Q , has the higher reported remaining at 0.5 h value. Write down the label of the entry you select.
output: P

(a) COc1ccnc(S(=O)(=O)/C=C/c2ncccc2Cl)c1
(b) COc1cccnc1S(=O)(=O)/C=C/c1ccccc1F
input: Please tell me which of the two, a or b , has the higher reported remaining at 0.5 h value. Write down the label of the entry you select.
output: b
(b: 89.4%, a: 61.7%)

###

Experiment: Metabolic stability of the compound in human plasma assessed as parent compound remaining measured after 30 mins
Type: ADME, cell-free
Conditions: read-out: Stability
Readout Type: remaining at 0.5 h (%)

INSERT INTO measurements (entry_smiles, value_measured) VALUES
  ('COc1cccc(S(=O)(=O)/C=C/c2ncccc2C(F)(F)F)n1', 94.2),
  ('COc1ccnc(S(=O)(=O)/C=C/c2ccccc2C(F)(F)F)c1', 99),
  ('COc1ccnc(S(=O)(=O)/C=C/c2cccnc2Cl)c1', 99),
  ('COc1cccnc1S(=O)(=O)/C=C/c1ccccc1C(F)(F)F', 96.8),
  ('COc1cccc(S(=O)(=O)/C=C/c2ccccc2C(F)(F)F)n1', 98.4);

###

Biological target: UniProt:P10635
Sequence (P10635 whole entry): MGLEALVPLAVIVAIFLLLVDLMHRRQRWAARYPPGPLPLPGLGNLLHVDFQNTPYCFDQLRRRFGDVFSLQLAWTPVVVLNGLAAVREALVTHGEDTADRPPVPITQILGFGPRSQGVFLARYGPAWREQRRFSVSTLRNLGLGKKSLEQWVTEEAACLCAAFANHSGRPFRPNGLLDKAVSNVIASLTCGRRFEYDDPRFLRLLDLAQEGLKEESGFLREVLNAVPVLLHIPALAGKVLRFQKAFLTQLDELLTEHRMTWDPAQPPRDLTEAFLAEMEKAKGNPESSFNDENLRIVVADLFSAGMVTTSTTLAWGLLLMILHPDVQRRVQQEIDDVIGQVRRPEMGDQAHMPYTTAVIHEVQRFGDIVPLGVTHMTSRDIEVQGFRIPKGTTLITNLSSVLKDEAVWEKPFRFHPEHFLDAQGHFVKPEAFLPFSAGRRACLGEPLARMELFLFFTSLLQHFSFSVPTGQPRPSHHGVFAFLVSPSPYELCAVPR
Test: Inhibition of CYP2D6 (unknown origin) assessed as enzyme activity at 10 uM relative to control
Format: ADME
Design: scale not given: the % may be the effect or the level left
Details: read-out: Activity
Readout Type: activity at 10 µM (%)

INSERT INTO assay_data (compound, readout_type, units_symbol, value_measured) VALUES
  ('COc1ccc(S(=O)(=O)/C=C/c2ccccc2C(F)(F)F)nc1', 'activity at 10 µM', '%', 100),
  ('COc1cccnc1/C=C/S(=O)(=O)c1ncccc1OC', 'activity at 10 µM', '%', 91.9),
  ('COc1cccnc1[S+]([O-])/C=C/c1ccccc1C(F)(F)F (configuration not stated)', 'activity at 10 µM', '%', 95.9),
  ('COc1cccc(S(=O)(=O)/C=C/c2ccccc2Cl)n1', 'activity at 10 µM', '%', 97.6),
  ('COc1cccc([S+]([O-])/C=C/c2ccccc2C(F)(F)F)n1 (configuration not stated)', 'activity at 10 µM', '%', 72.6),
  ('COc1ccnc(S(=O)(=O)/C=C/c2ccccc2Cl)c1', 'activity at 10 µM', '%', 97.5),
  ('COc1ccc([S+]([O-])/C=C/c2ccccc2C(F)(F)F)nc1 (configuration not stated)', 'activity at 10 µM', '%', 94),
  ('COc1ncccc1S(=O)(=O)/C=C/c1ccccc1Cl', 'activity at 10 µM', '%', 99.5),
  ('COc1cccnc1S(=O)(=O)/C=C/c1ccccc1Cl', 'activity at 10 µM', '%', 93.4),
  ('COc1ccnc(S(=O)(=O)/C=C/c2ccc(Cl)cc2)c1', 'activity at 10 µM', '%', 98.5);
